Give measured d(O1,O2) for each item. Keep answers brief.
study_target: MASP-2 CCP2-SP (Homo sapiens (Human))
assay_notes: MASP-2 co-crystallization, X-ray crystallography and structure analysis (H-bonds, van der Waals contacts)
Parameters: unit not given beside the values
setup_conditions: Table A5-1 pharmacophore: distance between elements, S2/S1 region
Structures can show the parent of a compound that is named as a salt.
Give bare numbers.

Past entries and their recorded results:
[[record]]
compound = "C[C@H](NC(=O)[C@H]1C[C@H](Cc2ccccc2)CN1)C(=O)NCc1ccc(C(=N)N)cc1.Cl.Cl [1306_1]"
study_target = "MASP-2 CCP2-SP (Homo sapiens (Human))"
result_number = 3.06

[[record]]
compound = "Cc1nc(N)ccc1CNC(=O)[C@H](C)NC(=O)[C@H]1C[C@@H](c2ccccc2)CCN1 [compound 1253, Dihydrochloride]"
study_target = "MASP-2 CCP2-SP (Homo sapiens (Human))"
result_number = 3.39

[[record]]
compound = "C[C@H](NC(=O)[C@H](N)C1Cc2ccccc2C1)C(=O)NCc1ccc2c(N)nccc2c1.Cl.Cl [1088_B]"
study_target = "MASP-2 CCP2-SP (Homo sapiens (Human))"
result_number = 3.02

[[record]]
compound = "C[C@H](NC(=O)[C@H]1C[C@@H](c2ccccc2)CCN1)C(=O)NCc1cc(Cl)ccc1O.Cl [1078_7]"
study_target = "MASP-2 CCP2-SP (Homo sapiens (Human))"
result_number = 3.35

[[record]]
compound = "C[C@H](NC(=O)[C@H](N)CCc1ccccc1)C(=O)NCc1ccc(C(=N)N)cc1"
study_target = "MASP-2 CCP2-SP (Homo sapiens (Human))"
result_number = 3.23

[[record]]
compound = "Cc1nc(N)ccc1CNC(=O)[C@H](C)NC(=O)[C@H]1C[C@H](Cc2cccc(Cl)c2)CN1.Cl.Cl [1328_2]"
study_target = "MASP-2 CCP2-SP (Homo sapiens (Human))"
result_number = 3.08


// moving on: another record for d(O1,O2)
Form field d(O1,O2), entry C[C@H](NC(=O)[C@H]1C[C@@H](c2ccccc2)CN1)C(=O)NCc1ccc2c(N)nccc2c1.Cl.Cl [1089_B] : 3.33

* * *

Please go through the items and note down their van der Waals contact distance, MASP-2 amino acid atom to compound atom.
study_target: MASP-2 CCP2-SP (Homo sapiens (Human), UniProt O00187)
Sequence (O00187 445-686): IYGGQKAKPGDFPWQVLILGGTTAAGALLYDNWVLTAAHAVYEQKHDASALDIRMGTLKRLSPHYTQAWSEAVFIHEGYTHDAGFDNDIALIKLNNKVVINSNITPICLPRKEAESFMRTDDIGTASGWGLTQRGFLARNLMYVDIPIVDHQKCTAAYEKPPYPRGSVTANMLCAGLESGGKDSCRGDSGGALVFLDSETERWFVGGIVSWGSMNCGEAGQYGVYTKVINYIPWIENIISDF
Sequence (O00187 364-432 partner): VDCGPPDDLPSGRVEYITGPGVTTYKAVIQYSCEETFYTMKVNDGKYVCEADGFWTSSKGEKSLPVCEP
assay_notes: MASP-2 co-crystallization, X-ray crystallography and structure analysis (H-bonds, van der Waals contacts)
setup_conditions: Table A2-9; ARG 630; AA atoms CG, CZ
Where a name gives a salt, the structure may show the parent alone.
Give bare numbers.

# annotated cases, reported van der Waals contact distance, MASP-2 amino acid atom to compound atom shown
[[record]]
compound = "N=C(N)c1ccc(CNC(=O)[C@@H]2CCN2C(=O)[C@H](NCC(=O)O)C2CCCCC2)cc1 [melagatran, reference compound]"
study_target = "MASP-2 CCP2-SP (Homo sapiens (Human), UniProt O00187)"
result_number = 3.8

[[record]]
compound = "Cc1nc(N)ccc1CNC(=O)[C@H](C)NC(=O)[C@H]1C[C@@H](c2ccccc2)CCN1C [compound 1441]"
study_target = "MASP-2 CCP2-SP (Homo sapiens (Human), UniProt O00187)"
result_number = 3.87

[[record]]
compound = "C[C@H](NC(=O)[C@H](N)C1Cc2ccccc2C1)C(=O)NCc1ccc2c(N)nccc2c1 [compound 1088, Dihydrochloride]"
study_target = "MASP-2 CCP2-SP (Homo sapiens (Human), UniProt O00187)"
result_number = 3.79


The recorded van der Waals contact distance, MASP-2 amino acid atom to compound atom with MASP-2 CCP2-SP (Homo sapiens (Human), UniProt O00187) for Cc1cccc([C@H]2CN[C@@H](C(=O)N[C@@H](C)C(=O)NCc3ccc(N)nc3C)C2)c1 [compound 1257, Dihydrochloride] was 3.53

Value source: patent US12195427B2
